conditions: buffer; pH 7.4; 200.0 µM
For each entry below, report its log10(solubility kinetic) value.
Heads up: the numbers are on a log10 scale; they represent solubility kinetic in µg/mL.

[
  {
    "compound structure string": "O=[N+]([O-])c1cnc(Nc2ccc(Cl)cn2)c([N+](=O)[O-])c1",
    "measurement kind": "log10(solubility kinetic)",
    "reported measurement": 0.26
  },
  {
    "compound structure string": "Cc1cnc(NCCc2ccccc2)s1",
    "measurement kind": "log10(solubility kinetic)",
    "reported measurement": 1.36
  },
  {
    "compound structure string": "Cl.NCCCCNCCCN",
    "measurement kind": "log10(solubility kinetic)",
    "reported measurement": 1.21
  }
]

Take each entry in turn and give its log10(solubility kinetic).
1. Cc1ccc(NC(=S)c2ccncc2)cc1
2. Cc1cc(Cl)cc(C)c1OCC(=O)NC1CCCCCC1

output:
1.53
0.28
